Values compiled from paper PMC10183829.

So I've got a bunch of binders here, and I need their Kd values.
TARGET_OF_ASSAY: T1, ATG8A (purified) (Arabidopsis thaliana, UniProt Q8LEM4 1-117)
T1 chain: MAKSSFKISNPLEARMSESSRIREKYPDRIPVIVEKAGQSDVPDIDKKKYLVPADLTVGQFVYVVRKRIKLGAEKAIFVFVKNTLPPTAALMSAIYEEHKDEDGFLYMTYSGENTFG
ASSAY_INFO: FP
No end group written: not given here. TAMRA = 5(6)-carboxytetramethylrhodamine
Answers are plain numbers, in µM.

Some solved entries appear below for comparison.
BINDER	VALUE_UNITS	MEASURED_VALUE
{TAMRA}-ETPEIDWDVSMVEEV [peptide derived from sAIM2 (AtC53 IDR)]	µM	56.8
{TAMRA}-AADSIDWDITVET [peptide derived from sAIM1 (AtC53 IDR)]	µM	97.6

Proceeding to the next binder to report its Kd.
Endpoint output: Kd of {TAMRA}-DLGSYEIVNASDI [peptide derived from the cAIM of the AtC53 IDR] . Value? 62.5
